Consider the following molecules and their measured mortality at 200 µg/mL readings.
- System: tomato root gall nematode (Meloidogyne incognita)
- method: Tomato root gall nematode test (II. stage infective larvae, treated NGM agar plate)
- Type: in vivo
- run-conditions: Meloidogyne incognita; 200 μg/ml, 72 hours, second test; read-out: mortality 2.
parameter-measured: mortality at 200 µg/mL (%)

CC1(C)C=Cc2cc3c(cc2O1)OCO3 | 69
CCOc1cc2c(cc1OC)C=CC(C)(C)O2 [Compound 3, reference compound] | 20
COc1cc2c(cc1OC)OC(C)(C)C=C2 [Compound 1, 6,7-dimethoxy-2,2-dimethyl-2H-chromene, reference compound] | 76
C=CCOc1cc2c(cc1OCC=C)OC(C)(C)C=C2 | 29
CCOc1cc2c(cc1OCC)OC(C)(C)C=C2 | 69

====

- Test system: tomato root gall nematode (Meloidogyne incognita)
- method: Tomato root gall nematode test (II. stage infective larvae, treated NGM agar plate)
- Format: in vivo
- run-conditions: Meloidogyne incognita; 400 μg/ml, 72 hours; read-out: mortality Average
parameter-measured: mortality at 400 µg/mL

CCOc1cc2c(cc1OCC)OC(C)(C)C=C2 | 87%
CC1(C)C=Cc2cc3c(cc2O1)OCO3 | 94%
C=CCOc1cc2c(cc1OCC=C)OC(C)(C)C=C2 | 44%
CCOc1cc2c(cc1OC)C=CC(C)(C)O2 [Compound 3, reference compound] | 97%
COc1cc2c(cc1OC)OC(C)(C)C=C2 [Compound 1, 6,7-dimethoxy-2,2-dimethyl-2H-chromene, reference compound] | 97%

====

Consider the following compounds and their measured Survival nymph readings.
- Test system: cabbage butterfly (Pieris brassicae)
- method: Cabbage butterfly test (sprayed cabbage seedlings)
- Assay type: in vivo
- run-conditions: 50 EC, 0.1%
parameter-measured: Survival nymph (%)

CCC(C)Oc1cc(C)c2c(c1)OC(C)(C)C=C2 (centres unmarked) [Compound 41] | 19
CCOc1cc(C)c2c(c1)OC(C)(C)C=C2 [Compound 38] | 19
CCCOc1cc(OC)c2c(c1)OC(C)(C)C=C2 [Compound 46] | 12
COc1cc(OC(C)C)cc2c1C=CC(C)(C)O2 [Compound 47] | 13
CCOc1ccc2c(c1OC)OC(C)(C)C=C2 [Compound 50] | 24
COc1c(OC(C)C)ccc2c1OC(C)(C)C=C2 [Compound 52] | 36
C#CCOc1cc(C)c2c(c1)OC(C)(C)C=C2 [Compound 44] | 17
COc1c(OCC(C)C)ccc2c1OC(C)(C)C=C2 [Compound 54] | 7

====

Consider the following compounds and their measured Survival nymph readings.
- Test system: domestic fly (Musca domestica)
- method: Domestic fly test (larvae in treated nutrient medium)
- Format: in vivo
- run-conditions: 0.1% related to milk, 0.05% related to total nutrient medium
parameter-measured: Survival nymph (%)

CCC(C)Oc1ccc2c(c1)OC(C)(C)C=C2 (stereo not shown) | 115
CCOc1ccc2c(c1OC)OC(C)(C)C=C2 | 5.4
COc1c(OC(C)C)ccc2c1OC(C)(C)C=C2 | 12
CCOc1cc(C)c2c(c1)OC(C)(C)C=C2 | 40
Cc1cc(OC2CCCC2)cc2c1C=CC(C)(C)O2 | 52.7
Cc1cc(OCC(C)C)cc2c1C=CC(C)(C)O2 | 45.4
CCC(C)Oc1cc(C)c2c(c1)OC(C)(C)C=C2 (stereo not shown) | 25.4
C#CCOc1cc(C)c2c(c1)OC(C)(C)C=C2 | 50.9
COc1cc(OCC(C)C)cc2c1C=CC(C)(C)O2 | 0
CCCOc1cc(OC)c2c(c1)OC(C)(C)C=C2 | 9.1
